System: U-937
Assay: Cytotoxicity against human U937 cells assessed as cell viability at 10 ug/ml after 72 hrs by MTT assay
Type: functional
Conditions: U-937, 72 h, read-out: Activity
experimental_endpoint: viability at 10 µg/mL (%)
Form entry: value (%) — number only.

Guide cases for viability at 10 µg/mL, answers given:
OC(COC(c1ccccc1)c1cccc2ccccc12)CN1CCN(Cc2ccccc2)CC1 (centres undefined) : 74
OC(COC(c1ccccc1)c1cccc2ccccc12)CN1CCN(C(c2ccccc2)c2ccccc2)CC1 (centres undefined) : 70
COc1cccc(N2CCN(CC(O)COC(c3ccccc3)c3cccc4ccccc34)CC2)c1 (centres undefined) : 63

With those in mind, consider the next compound.
Ask | State the recorded viability at 10 µg/mL for this entry: COc1ccccc1N1CCN(CC(O)COC(c2ccccc2)c2cccc3ccccc23)CC1 (centres undefined)
Reply | 62
